# Target Of Assay: Cytochrome P450 2C19 (Homo sapiens)
# Assay Overview: Cytochrome P450 Family 2 Subfamily C Member 19 (CYP2C19) small molecule antagonists: luciferase reporter qHTS assay (AID 1671197); note: nearly all actives have a fitted effect of over 65% in size
# Condition: P450-Glo CYP2C19 enzyme, luciferin luminescence, 1 h; series mostly up to 115 µM
Records with an inconclusive call do not appear. Calls of active or inactive are those of the source. Calls come from the whole dose curve; as a rule, active = well fitted inhibition curve with a large enough effect in the repeat runs; inconclusive = weak or mixed curves; inactive = no such curve, though single readings can be large or run the other way.
Classes used: active, inactive

>  <Compound>
CCN(CC)C(=O)[C@@H]1C=C2c3cccc4[nH]cc(c34)C[C@H]2N(C)C1

>  <Class>
active

$$$$
>  <Compound>
CCOC(=O)/C=C(C)/C=C/C[C@@H](C)CCCC(C)C

>  <Class>
active

$$$$
>  <Compound>
CSc1ccc(C(=O)C(C)(C)N2CCOCC2)cc1

>  <Class>
active

$$$$
>  <Compound>
O=C(Nc1ccccc1)N(Cc1ccc(Cl)cc1)C1CCCC1

>  <Class>
active

$$$$
>  <Compound>
CCOC(=O)C(c1c(O)c2ccccc2oc1=O)c1c(O)c2ccccc2oc1=O

>  <Class>
inactive

$$$$
>  <Compound>
CN(N=O)C(N)=O

>  <Class>
inactive

$$$$
>  <Compound>
C[C@@H]1CN(C2CCC(C#N)(c3ccc(F)cc3)CC2)CC[C@]1(C(=O)O)c1ccccc1 (stereo not given in full)

>  <Class>
inactive

$$$$
>  <Compound>
CN(C)CCc1ccc(O)cc1

>  <Class>
inactive

$$$$
>  <Compound>
CCC(C)(C)c1cc(-n2nc3ccccc3n2)c(O)c(C(C)(C)CC)c1

>  <Class>
active

$$$$
>  <Compound>
[O]=[Cd]

>  <Class>
inactive

$$$$
>  <Compound>
CCOP(=S)(OCC)Oc1cc(-c2ccccc2)on1

>  <Class>
active

$$$$
>  <Compound>
CC1COC2(c3ccccc3Cl)c3cc(Cl)ccc3NC(=O)CN12 (stereo not given)

>  <Class>
active

$$$$
>  <Compound>
O=C(CCCN1CCC(n2c(=O)[nH]c3ccccc32)CC1)c1ccc(F)cc1

>  <Class>
inactive

$$$$
>  <Compound>
CCC/C(=N\OCC)C1=C(O)CC(CC(C)SCC)CC1=O (stereo not given)

>  <Class>
active

$$$$
>  <Compound>
CN1C[C@@H](NS(=O)(=O)N(C)C)C[C@@H]2c3cccc4c3c(cn4C)C[C@H]21

>  <Class>
inactive

$$$$
>  <Compound>
CC1CCCCC1NC(=O)Nc1ccccc1 (stereo not given)

>  <Class>
active

$$$$
>  <Compound>
COP(N)(=S)Oc1ccccc1C(=O)OC(C)C (stereo not given)

>  <Class>
active

$$$$
>  <Compound>
BrCCCCCCBr

>  <Class>
active

$$$$
>  <Compound>
N#Cc1c(Cl)cccc1Cl

>  <Class>
inactive

$$$$
>  <Compound>
CC(C)COP(=O)(OCC(C)C)OCC(C)C

>  <Class>
inactive

$$$$
>  <Compound>
CCCCOP(=O)(O)OCCCC

>  <Class>
active

$$$$
>  <Compound>
O=[N+]([O-])c1ccc2c3c(cccc13)CC2

>  <Class>
active

$$$$
>  <Compound>
CC1(C)COP(Oc2ccccc2)OC1

>  <Class>
inactive

$$$$
>  <Compound>
COc1cc(OC)nc(Oc2cccc(Oc3nc(OC)cc(OC)n3)c2C(=O)O)n1

>  <Class>
inactive

$$$$
>  <Compound>
CNC(=O)N(C)c1nc2ccccc2s1

>  <Class>
active

$$$$
>  <Compound>
CC(CCc1ccccc1)NC(C)C(O)c1ccc(O)cc1 (stereo not given)

>  <Class>
active

$$$$
>  <Compound>
CCCCCCI

>  <Class>
inactive

$$$$
>  <Compound>
CC(C)(C)C(=O)C(Oc1ccc(Cl)cc1)n1cncn1 (stereo not given)

>  <Class>
active

$$$$
>  <Compound>
C1CCC(C2CCCCC2)CC1

>  <Class>
inactive

$$$$
>  <Compound>
CCCCOC(=O)c1ccccc1N

>  <Class>
active

$$$$
>  <Compound>
CC(C)(C)OC(=O)c1ncn2c1[C@@H]1CCCN1C(=O)c1c(Br)cccc1-2

>  <Class>
inactive

$$$$
>  <Compound>
CNCC(=O)c1ccc(O)c(O)c1

>  <Class>
inactive

$$$$
>  <Compound>
Cc1cc(C)nc(Nc2ccccc2)n1

>  <Class>
active

$$$$
>  <Compound>
O=C(CCN1CC1)OCC(CO)(COC(=O)CCN1CC1)COC(=O)CCN1CC1

>  <Class>
inactive

$$$$
>  <Compound>
COc1cc(OC)nc(Sc2cccc(Cl)c2C(=O)O)n1

>  <Class>
inactive

$$$$

Just for reference, PubChem BioAssay (Tox21) is where these values come from.
